Values from patent US12681018B2

target.desc: Estrogen Receptor-HaloTag (ER-Halo) fusion (Rhodococcus rhodochrous, UniProt P0A3G2, A155T/A167V/A172T/A224E/C128F/C176G/D78G/E160K/E257K/H272N/K175M/K195N/L47V/L88M/N227D/P291S/S58T/T264A/Y273L/Y87F)
Construct: expressed in transfected cells; host or cells: U2OS
Sequence (P03372 whole entry, the tested form may be a part): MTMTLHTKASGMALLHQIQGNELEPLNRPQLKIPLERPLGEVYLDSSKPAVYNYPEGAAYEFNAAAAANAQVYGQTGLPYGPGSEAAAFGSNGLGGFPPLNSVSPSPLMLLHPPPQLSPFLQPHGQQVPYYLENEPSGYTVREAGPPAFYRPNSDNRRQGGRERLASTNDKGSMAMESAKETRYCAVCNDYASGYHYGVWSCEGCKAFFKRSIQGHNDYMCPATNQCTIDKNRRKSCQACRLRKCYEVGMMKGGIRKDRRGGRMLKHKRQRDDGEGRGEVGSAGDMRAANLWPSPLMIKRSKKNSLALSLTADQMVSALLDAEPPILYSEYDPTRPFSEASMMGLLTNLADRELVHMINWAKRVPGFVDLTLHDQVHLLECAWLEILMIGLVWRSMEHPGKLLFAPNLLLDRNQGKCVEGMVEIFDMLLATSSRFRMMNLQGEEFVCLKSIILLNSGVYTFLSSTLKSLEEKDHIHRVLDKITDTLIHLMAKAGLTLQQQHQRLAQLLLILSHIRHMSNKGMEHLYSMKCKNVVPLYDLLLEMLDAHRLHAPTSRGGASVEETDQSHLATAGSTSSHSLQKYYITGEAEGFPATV
Sequence (P0A3G2 other isoform, or with tags, fused parts or gaps with the stated changes): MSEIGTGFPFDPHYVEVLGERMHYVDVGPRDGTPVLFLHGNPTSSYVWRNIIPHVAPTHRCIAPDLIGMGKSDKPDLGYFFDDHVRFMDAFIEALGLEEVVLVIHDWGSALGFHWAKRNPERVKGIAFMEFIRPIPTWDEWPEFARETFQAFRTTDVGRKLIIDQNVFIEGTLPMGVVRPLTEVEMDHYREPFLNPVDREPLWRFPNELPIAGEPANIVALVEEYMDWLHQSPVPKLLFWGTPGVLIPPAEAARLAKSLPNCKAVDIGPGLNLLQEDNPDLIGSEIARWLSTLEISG
Assay type: cell-based
setup.conditions: Table 4b; tracks in WT U2OS cells, ratio with PA-JF549 in the numerator; 100 nM, 1 hr
measured.quantity: Fold reduction in nonspecific labeling

Would you please look over these solved cases?
>>> reported("[N-]=[N+]=C1C(=O)c2ccc(NC(=O)CCOCCOCCCCCCCl)cc2C12c1ccc(N3CCC3)cc1Oc1cc(N3CCC3)ccc12 [Example 22]")
"5-10"
>>> reported("[N-]=[N+]=C1C(=O)c2ccc(C(=O)NCCOCCOCCCCCCCl)cc2C12c1ccc(N3CC(O)C3)cc1Oc1cc(N3CC(O)C3)ccc12 [Example 7]")
">10"
>>> reported("CN(C)C(=O)C1CN(c2ccc3c(c2)Oc2cc(N4CC(C(=O)N(C)C)C4)ccc2C32C(=[N+]=[N-])C(=O)c3ccc(C(=O)NCCOCCOCCCCCCCl)cc32)C1 [Example 4]")
">10"

Working through the 6 compounds below one at a time, give Fold reduction in nonspecific labeling for each.
1. CN(C)C(=O)[C@@H]1CCN1c1ccc2c(c1)Oc1cc(N3CC[C@H]3C(=O)N(C)C)ccc1C21C(=[N+]=[N-])C(=O)c2ccc(C(=O)NCCOCCOCCCCCCCl)cc21 [Example 14]
2. COC(=O)C1CN(c2ccc3c(c2)Oc2cc(N4CC(C(=O)OC)C4)ccc2C32C(=[N+]=[N-])C(=O)c3ccc(C(=O)NCCOCCOCCCCCCCl)cc32)C1 [Example 1]
3. CN(C)C1CN(c2ccc3c(c2)Oc2cc(N4CC(N(C)C)C4)ccc2C32C(=[N+]=[N-])C(=O)c3ccc(C(=O)NCCOCCOCCCCCCCl)cc32)C1 [Example 13]
4. [N-]=[N+]=C1C(=O)c2ccc(C(=O)NCCOCCOCCCCCCCl)cc2C12c1ccc(N3CC(C(=O)N4CCCC4)C3)cc1Oc1cc(N3CC(C(=O)N4CCCC4)C3)ccc12 [Example 10]
5. COC(=O)[C@H]1CCN1c1ccc2c(c1)Oc1cc(N3CC[C@@H]3C(=O)OC)ccc1C21C(=[N+]=[N-])C(=O)c2ccc(C(=O)NCCOCCOCCCCCCCl)cc21 [Example 6]
6. [N-]=[N+]=C1C(=O)c2ccc(C(=O)NCCOCCOCCCCCCCl)cc2C12c1ccc(N3C4COCC3C4)cc1Oc1cc(N3C4COCC3C4)ccc12 (stereo not shown) [Example 17]

Output:
[">10", ">10", "5-10", "5-10", "1-5", "1-5"]

Consider CN1CC2CC(C1)N2c1ccc2c(c1)Oc1cc(N3C4CC3CN(C)C4)ccc1C21C(=[N+]=[N-])C(=O)c2ccc(C(=O)NCCOCCOCCCCCCCl)cc21 (stereo not shown) [Example 18] . Its measured Fold reduction in nonspecific labeling is >10
